Entries and their measured Potency follow.
Test: qHTS of pediatric cancer cell lines to identify multiple opportunities for drug repurposing: Confirmatory screen for NB1643 cells (AID 1347109); also: potency is read from the fitted curve at half-maximal effect; nearly all actives have a fitted effect of over 45% in size
Conditions: NB1643 neuroblastoma cell viability; series mostly up to 45.9 µM
Results filed as inconclusive are left out. Active and inactive are the calls of the source. Calls follow the shape of the dose curve; as a rule, active = well fitted cell-killing curve with a large enough effect; inconclusive = small, poorly fitted or top-dose-only effect, or effect the other way; inactive = no such curve, though single readings can be large or run the other way.

// known answers, use as guide
[
  {
    "CPD_SMILES": "Nc1ccccc1NC(=O)c1ccc(CNC(=O)OCc2cccnc2)cc1",
    "Potency": "2.14 µM (active)"
  },
  {
    "CPD_SMILES": "O=C(Nc1ncc(-c2cc(C(F)F)nn2-c2c(Cl)cccc2Cl)s1)C1CC1",
    "Potency": "1.17 µM (active)"
  },
  {
    "CPD_SMILES": "C[C@@H](Oc1cc(-c2cnn(C3CCNCC3)c2)cnc1N)c1c(Cl)ccc(F)c1Cl",
    "Potency": "5.85 µM (active)"
  },
  {
    "CPD_SMILES": "Cc1nc(N)ncc1-c1nc(N2CCOCC2)c2sc(C(C)(C)O)cc2n1",
    "Potency": "1.65 µM (active)"
  },
  {
    "CPD_SMILES": "COC(=O)c1ccc2c(C(=Nc3ccc(N(C)C(=O)CN4CCN(C)CC4)cc3)c3ccccc3)c(O)[nH]c2c1",
    "Potency": "16.5 µM (active)"
  }
]

Ask: Name the reported Potency value associated with the compound `COc1cc2c(Oc3ccc(NC(=O)C4(C(=O)Nc5ccc(F)cc5)CC4)cc3F)ccnc2cc1OCCCN1CCOCC1`
Reply: 5.22 µM (active)

* * *

Entries and their measured Z-AUC follow.
Assay: qHTS drug screen for cell cycle checkpoint inhibitors in PARPi-resistant BRCA-mutant ovarian cancer cell lines. (AID 1963452)
Conditions: PEO1/OlaR viability, CellTiter-Glo luminescence, 96 h; measured here: PEO4 Z-AUC; stronger effect = lower value
Reply briefly: the number, and no unit.

// known answers, use as guide
[
  {
    "CPD_SMILES": "CN1CCN(c2ccc3nc(-c4c(N)c5c(F)cccc5[nH]c4=O)[nH]c3c2)CC1",
    "Z-AUC": -0.379
  },
  {
    "CPD_SMILES": "Cc1c(CN2CCN(S(C)(=O)=O)CC2)sc2c(N3CCOCC3)nc(-c3cnc(N)nc3)nc12",
    "Z-AUC": 0.402
  },
  {
    "CPD_SMILES": "CCn1cc(-c2ccnc3[nH]c(-c4cccc(CN(C)C)c4)cc23)c(-c2ccc(NC(=O)N(C)C)cc2)n1",
    "Z-AUC": -1.88
  },
  {
    "CPD_SMILES": "COc1cc(Nc2ncc(F)c(Nc3ccc4c(n3)N(COP(=O)(O)O)C(=O)C(C)(C)O4)n2)cc(OC)c1OC",
    "Z-AUC": 0.538
  },
  {
    "CPD_SMILES": "O=C(Nc1nc2cccc(-c3ccc(CN4CCS(=O)(=O)CC4)cc3)n2n1)C1CC1",
    "Z-AUC": 0.638
  }
]

Ask: Name the reported Z-AUC value associated with the compound `Cn1cc(-c2ccncc2)c(-c2ccc(OCc3ccc4ccccc4n3)cc2)n1`
Reply: 0.0189

Ask: Name the reported Z-AUC value associated with the compound `Cc1ccc(C(=O)Nc2cccc(C(F)(F)F)c2)cc1-c1ccc2nc(NCCN3CCOCC3)ncc2c1`
Reply: -0.0261

Ask: Name the reported Z-AUC value associated with the compound `CN(C)CCCN=c1c2ccccc2n(C)c2[nH]c(=O)n(C)c(=O)c12`
Reply: 1.54

Ask: Name the reported Z-AUC value associated with the compound `CC(C)c1cc(-c2n[nH]c(=O)n2-c2ccc3c(ccn3C)c2)c(O)cc1O`
Reply: 0.105

Ask: Name the reported Z-AUC value associated with the compound `O=C(Cc1ccc(-c2ccc(OCCN3CCOCC3)cc2)cn1)NCc1ccccc1`
Reply: -1.63

Ask: Name the reported Z-AUC value associated with the compound `NC(=O)Nc1cc(-c2cccc(F)c2)sc1C(=O)N[C@H]1CCCNC1`
Reply: -1.5

Ask: Name the reported Z-AUC value associated with the compound `CC(C)(O)CCc1ccc(OCc2cc(-c3cccc(OC(F)F)c3)c3ncccc3c2)cc1`
Reply: 0.147
